# Tested on: AMARE
# TEST_SUMMARY: Pre-emergence herbicidal action against AMARE
# Type: in vivo, Amaranthus retroflexus
# TEST_CONTEXT: 320 g/ha
# Pre-emergence action against AMARE in % annotations
Dear colleague, please return just the value in %, with no unit written.

Observe how each entry below is paired with its result.
COMPOUND | MEASURED
CC#Cc1cc(C)c(C2=C(OC(=O)C(C)C)C3(CCC(COC)C3)NC2=O)c(OC)c1 (centres unmarked) | 100
C#CCOCC1CCC2(C1)NC(=O)C(c1c(C)cc(C#CC)cc1Cl)=C2OC(=O)OCC (centres unmarked) [Example P-99] | 100
CC#Cc1cc(C)c(C2=C(O)C3(CCC(COC)C3)NC2=O)c(F)c1 (centres unmarked) | 90

Problem: Looking for the measured Pre-emergence action against AMARE in % of CC#Cc1cc(Cl)c(C2=C(O)C3(CCC(COC)C3)NC2=O)c(OC)c1 (centres unmarked) , can you help?
Solution: 100

Problem: I have this compound here, CC#Cc1cc(Cl)c(C2=C(OC(=O)OCC)C3(CCC(COC)C3)NC2=O)c(OC)c1 (centres unmarked) [Example P-98] , and I need its recorded Pre-emergence action against AMARE in %.
Solution: 100

Problem: Could you tell me which Pre-emergence action against AMARE in % is on file for CC#Cc1cc(C)c(C2=C(OC(=O)C(C)C)C3(CCC(COCC)C3)NC2=O)c(Cl)c1 (centres unmarked) ?
Solution: 100

Problem: Recorded Pre-emergence action against AMARE in % for CC#Cc1cc(C)c(C2=C(OC(=O)C(C)C)C3(CCC(COCC)C3)NC2=O)c(OC)c1 (centres unmarked) [Example P-50] , please?
Solution: 100

Problem: Recorded Pre-emergence action against AMARE in % of CC#Cc1cc(Br)c(C2=C(OC(=O)C(C)C)C3(CCC(COC)C3)NC2=O)c(OC)c1 (centres unmarked) , please.
Solution: 80

Problem: Name the reported Pre-emergence action against AMARE in % value associated with the compound CC#Cc1cc(C)c(C2=C(OC(=O)C(C)C)C3(CCC(COC)C3)NC2=O)c(Br)c1 (centres unmarked) [Example P-32]
Solution: 90

Problem: Pre-emergence action against AMARE in % lookup needed for CC#Cc1cc(C)c(C2=C(O)C3(CCC(COCCOC)C3)NC2=O)c(Cl)c1 (centres unmarked) [Example I-50] , thanks.
Solution: 80

Problem: // query Pre-emergence action against AMARE in % value for entry CC#Cc1cc(F)c(C2=C(OC(=O)OCC)C3(CCC(COCCC)C3)NC2=O)c(OC)c1 (centres unmarked)
Solution: 90

Problem: Any idea what Pre-emergence action against AMARE in % was measured for C#CCOCC1CCC2(C1)NC(=O)C(c1c(C)cc(C#CC)cc1OC)=C2OC(=O)OCC (centres unmarked) [Example P-101] ?
Solution: 100

Problem: Quick one: Pre-emergence action against AMARE in % for CC#Cc1cc(C)c(C2=C(OC(=O)OCC)C3(CCC(COCC)C3)NC2=O)c(F)c1 (centres unmarked) ?
Solution: 100

Problem: Which Pre-emergence action against AMARE in % is listed for CC#Cc1cc(C)c(C2=C(OC(=O)C(C)C)C3(CCC(COCC)C3)NC2=O)c(Br)c1 (centres unmarked) ?
Solution: 100

Problem: Query (compound): CC#Cc1cc(C)c(C2=C(OC(=O)OCC)C3(CCC(COCCOC)C3)NC2=O)c(Cl)c1 (centres unmarked) [Example P-75] ; field requested: Pre-emergence action against AMARE in %
Solution: 100

Problem: // query Pre-emergence action against AMARE in % value for entry CC#Cc1cc(C)c(C2=C(O)C3(CCC(COCCC)C3)NC2=O)c(OC)c1 (centres unmarked) [Example I-59]
Solution: 100

Problem: Which measured Pre-emergence action against AMARE in % value corresponds to C#CCOCC1CCC2(C1)NC(=O)C(c1c(C)cc(C#CC)cc1Cl)=C2OC(=O)OCC (centres unmarked) [Example P-100] ?
Solution: 100

Problem: # Pre-emergence action against AMARE in % lookup, item C=CCOCC1CCC2(C1)NC(=O)C(c1c(F)cc(C#CC)cc1OC)=C2O (centres unmarked)
Solution: 80

Problem: # input compound: CC#Cc1cc(C)c(C2=C(OC(=O)OCC)C3(CCC(COC)C3)NC2=O)c(Br)c1 (centres unmarked) [Example P-31] ; wanted: its Pre-emergence action against AMARE in %
Solution: 100

Problem: Quick check: Pre-emergence action against AMARE in % of CC#Cc1cc(C)c(C2=C(OC(=O)OCC)C3(CCC(COCCOC)C3)NC2=O)c(OC)c1 (centres unmarked) [Example P-79] ?
Solution: 80

Problem: Can you share its Pre-emergence action against AMARE in %? I mean this compound: CC#Cc1cc(C)c(C2=C(O)C3(CCC(COCC)C3)NC2=O)c(Cl)c1 (centres unmarked) [Example I-02]
Solution: 100

====

Examples of molecules with documented Pre-emergence action against VERPE in % follow.
# System: VERPE
# TEST_SUMMARY: Pre-emergence herbicidal action against VERPE
# Format: in vivo, Veronica persica
# TEST_CONTEXT: 320 g/ha
// note: answer is a bare numeric in %

// below: answered molecules
MOLECULE | UNITS_OF_MEASURE | MEASURED
C=CCOCC1CCC2(C1)NC(=O)C(c1c(C)cc(C#CC)cc1Cl)=C2OC(=O)OCC (stereo not shown) [Example P-72] | % | 80
CC#Cc1cc(Br)c(C2=C(OC(=O)C(C)C)C3(CCC(COCC)C3)NC2=O)c(OC)c1 (stereo not shown) | % | 90
CC#Cc1cc(Br)c(C2=C(O)[C@]3(CC[C@H](COCC)C3)NC2=O)c(OC)c1 (stereo in doubt) | % | 100

Problem: Give the measured Pre-emergence action against VERPE in % of CC#Cc1cc(C)c(C2=C(OC(=O)OCC)C3(CCC(COCCC)C3)NC2=O)c(Cl)c1 (stereo not shown) [Example P-86] .
Solution: 100

Problem: Which measured Pre-emergence action against VERPE in % value corresponds to CC#Cc1cc(C)c(C2=C(OC(=O)OCC)C3(CCC(COC)C3)NC2=O)c(OC)c1 (stereo not shown) ?
Solution: 80

Problem: Quick one: Pre-emergence action against VERPE in % of C=CCOCC1CCC2(C1)NC(=O)C(c1c(C)cc(C#CC)cc1Br)=C2OC(=O)OCC (stereo not shown) [Example P-85] ?
Solution: 90

====

# System: DIGSA
# TEST_SUMMARY: Post-emergence herbicidal action against DIGSA
# Type: in vivo, Digitaria sanguinalis
# TEST_CONTEXT: 80 g/ha, visual assessment about 3 weeks after treatment vs untreated controls
Listing: Post-emergence action against DIGSA in % of selected compounds
Lab book: enter the figure in %, no units written.

COMPOUND | Post-emergence action against DIGSA in % [%]
CC#Cc1cc(C)c(C2=C(O)C3(CCC(COC)C3)NC2=O)c(Cl)c1 (stereo not drawn) [Example I-12] | 100
CC#Cc1cc(C)c(C2=C(OC(=O)C(C)C)C3(CCC(COC)C3)NC2=O)c(Br)c1 (stereo not drawn) [Example P-33] | 100
CC#Cc1cc(C)c(C2=C(OC(=O)OCC)C3(CCC(COCCOC)C3)NC2=O)c(Cl)c1 (stereo not drawn) [Example P-75] | 90
CC#Cc1cc(Br)c(C2=C(OC(=O)OCC)C3(CCC(COC)C3)NC2=O)c(OCC)c1 (stereo not drawn) [Example P-94] | 80
CC#Cc1cc(C)c(C2=C(OC(=O)OCC)C3(CCC(COC)C3)NC2=O)c(OC)c1 (stereo not drawn) [Example P-55] | 100
C#CCOCC1CCC2(C1)NC(=O)C(c1c(C)cc(C#CC)cc1OC)=C2OC(=O)OCC (stereo not drawn) [Example P-103] | 100
C#CCOCC1CCC2(C1)NC(=O)C(c1c(C)cc(C#CC)cc1OC)=C2O (stereo not drawn) [Example I-76] | 90
CC#Cc1cc(Br)c(C2=C(O)C3(CCC(COCC)C3)NC2=O)c(OCC)c1 (stereo not drawn) [Example I-64] | 80

Problem: I'm curious: which Post-emergence action against DIGSA in % was measured for CC#Cc1cc(Cl)c(C2=C(O)C3(CCC(COC)C3)NC2=O)c(CC)c1 (stereo not drawn) [Example I-04] tested on DIGSA?
Solution: 100

====

# System: AVEFA
# TEST_SUMMARY: Pre-emergence herbicidal action against AVEFA
# Type: in vivo, Avena fatua
# TEST_CONTEXT: 320 g/ha, scored visually after 3 weeks vs untreated controls
As shown below, each of these compounds has a reported Pre-emergence action against AVEFA in % value.
Write it as a number; the unit % goes unstated.

COMPOUND | Pre-emergence action against AVEFA in % [%]
CC#Cc1cc(C)c(C2=C(O)C3(CCC(COCC)C3)NC2=O)c(OC)c1 (centres unmarked) [Example I-30] | 90

Problem: I'm curious: which Pre-emergence action against AVEFA in % was measured for C=CCOCC1CCC2(C1)NC(=O)C(c1c(C)cc(C#CC)cc1Cl)=C2O (centres unmarked) [Example I-44] tested on AVEFA?
Solution: 90

Problem: Entry CC#Cc1cc(C)c(C2=C(OC(=O)OCC)C3(CCC(COCC)C3)NC2=O)c(OC)c1 (centres unmarked) [Example P-49] , system AVEFA: what Pre-emergence action against AVEFA in % was measured?
Solution: 100
